assay: In vivo delivery to human stratum corneum (tritiated esters applied to arms of volunteers, tape stripping); conditions: 1% w/v in anhydrous ethanol, 18 hours
METRIC: Pyroglutamic acid delivered, Ethanol base (n mol/mg protein)

>>> endpoint_value("CCCCCCOC(=O)[C@@H]1CCC(=O)N1 [Pyroglutamic acid, n-hexyl ester, pyroglutamic acid n-hexyl ester]")
5

1: CCCCCCCCCCCCOC(=O)[C@@H]1CCC(=O)N1 [Dodecyl, pyroglutamic acid n-dodecyl ester]
2: CCCCOC(=O)[C@@H]1CCC(=O)N1 [Pyroglutamic acid, n-butyl ester, pyroglutamic acid n-butyl ester]
Input: Form: Entry with minimum Pyroglutamic acid delivered, Ethanol base (choose one): 1 / 2 To answer, give the label that identifies your chosen option.
Output: 1
(1: 4 n mol/mg protein, 2: 6 n mol/mg protein)

###

assay: In vitro delivery of pyroglutamic acid to stratum corneum of the rat (tritiated esters on newborn rat skin, resistant to 2 h water washing); format: in vitro ADME
METRIC: Pyroglutamic acid delivered (n moles/cm^2 skin)

>>> endpoint_value("CCCCOC(=O)[C@@H]1CCC(=O)N1")
17
>>> endpoint_value("CCCOC(=O)[C@@H]1CCC(=O)N1")
21
>>> endpoint_value("CCCCCCCCOC(=O)[C@@H]1CCC(=O)N1")
36

I: CCCCCCOC(=O)[C@@H]1CCC(=O)N1
II: COC(=O)[C@@H]1CCC(=O)N1
Input: Form: Entry with minimum Pyroglutamic acid delivered (choose one): I / II To answer, give the label that identifies your chosen option.
Output: II

###

assay: In vivo delivery to human stratum corneum (tritiated esters applied to arms of volunteers, tape stripping); conditions: 1% w/v in oil-in-water emulsion base, 18 hours
METRIC: Pyroglutamic acid delivered, Cream base (n mol/mg protein)

Use these answered entries as a reference point.
>>> endpoint_value("CCOC(=O)[C@@H]1CCC(=O)N1 [Pyroglutamic acid, ethyl ester, pyroglutamic acid ethyl ester]")
5
>>> endpoint_value("CCCCCCCCOC(=O)[C@@H]1CCC(=O)N1 [Pyroglutamic acid, n-octyl ester, pyroglutamic acid n-octyl ester]")
1
>>> endpoint_value("CCCCCCOC(=O)[C@@H]1CCC(=O)N1 [Pyroglutamic acid, n-hexyl ester, pyroglutamic acid n-hexyl ester]")
2

a: CCCCOC(=O)[C@@H]1CCC(=O)N1 [Pyroglutamic acid, n-butyl ester, pyroglutamic acid n-butyl ester]
b: CCCCCCCCCCCCOC(=O)[C@@H]1CCC(=O)N1 [Dodecyl, pyroglutamic acid n-dodecyl ester]
Input: Form: Entry with minimum Pyroglutamic acid delivered, Cream base (choose one): a / b To answer, give the label that identifies your chosen option.
Output: b
